All values here come from ChEMBL document CHEMBL4043127.

Parameter pIC50, tested on ATP-dependent RNA helicase DDX3X (Homo sapiens, UniProt O00571), listed per item.
Sequence (O00571 whole entry): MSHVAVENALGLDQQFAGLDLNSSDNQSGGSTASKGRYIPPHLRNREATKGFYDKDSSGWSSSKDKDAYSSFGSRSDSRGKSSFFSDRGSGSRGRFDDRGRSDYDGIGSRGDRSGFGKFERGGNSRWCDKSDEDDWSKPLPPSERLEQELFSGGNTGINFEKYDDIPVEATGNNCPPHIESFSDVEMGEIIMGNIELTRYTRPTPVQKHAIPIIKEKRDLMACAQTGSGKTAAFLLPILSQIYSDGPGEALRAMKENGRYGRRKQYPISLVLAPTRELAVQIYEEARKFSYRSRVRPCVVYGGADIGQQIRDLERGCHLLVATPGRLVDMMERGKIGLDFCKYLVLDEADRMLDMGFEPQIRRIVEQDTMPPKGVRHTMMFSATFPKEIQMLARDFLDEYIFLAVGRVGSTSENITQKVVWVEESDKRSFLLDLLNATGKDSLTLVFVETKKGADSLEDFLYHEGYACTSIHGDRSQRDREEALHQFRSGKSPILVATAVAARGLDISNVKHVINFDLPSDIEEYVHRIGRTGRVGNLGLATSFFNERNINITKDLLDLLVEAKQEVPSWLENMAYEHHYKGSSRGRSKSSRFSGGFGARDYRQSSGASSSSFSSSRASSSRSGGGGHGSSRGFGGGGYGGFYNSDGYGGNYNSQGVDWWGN
pIC50: −log10 of the molar value.

C=C1CC[C@@](C)(c2cc(Br)c(C)cc2O)[C@H]1C :: < 4.00

Continue with the compound presented below.
Need pIC50, item CC(C)=C[C@@H]1C[C@H](C)c2c(O)cc(C)c3c2C1=C(C)C(=O)C3=O [ELISABATIN A] < 4.00

----------
Target: Transitional endoplasmic reticulum ATPase (Homo sapiens, UniProt P55072)
Sequence (P55072 whole entry): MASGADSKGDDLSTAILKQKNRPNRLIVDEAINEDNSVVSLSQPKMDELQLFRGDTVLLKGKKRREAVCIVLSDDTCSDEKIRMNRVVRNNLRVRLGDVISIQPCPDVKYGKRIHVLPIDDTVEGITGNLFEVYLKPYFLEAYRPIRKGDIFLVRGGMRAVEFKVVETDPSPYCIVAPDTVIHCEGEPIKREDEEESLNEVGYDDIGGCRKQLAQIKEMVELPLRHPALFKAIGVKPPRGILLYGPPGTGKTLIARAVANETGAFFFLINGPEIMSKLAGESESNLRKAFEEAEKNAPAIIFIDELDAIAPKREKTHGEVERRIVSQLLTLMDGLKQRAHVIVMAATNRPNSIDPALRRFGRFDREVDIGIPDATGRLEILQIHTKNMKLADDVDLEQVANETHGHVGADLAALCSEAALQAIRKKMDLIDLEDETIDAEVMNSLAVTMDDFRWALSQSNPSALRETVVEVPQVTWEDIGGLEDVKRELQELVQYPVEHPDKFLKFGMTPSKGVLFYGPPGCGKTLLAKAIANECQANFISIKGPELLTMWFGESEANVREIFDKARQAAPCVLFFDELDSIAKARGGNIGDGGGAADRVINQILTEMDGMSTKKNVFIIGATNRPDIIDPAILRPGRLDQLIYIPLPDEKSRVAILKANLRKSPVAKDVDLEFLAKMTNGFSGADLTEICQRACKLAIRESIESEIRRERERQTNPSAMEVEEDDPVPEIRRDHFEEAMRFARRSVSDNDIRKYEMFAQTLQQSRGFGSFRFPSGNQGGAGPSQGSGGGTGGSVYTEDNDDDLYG
pIC50: −log10 of the molar value.
endpoint: pIC50

Need pIC50, item `CC(C)=C[C@@H]1C[C@H](C)c2c(O)cc(C)c3c2C1=C(C)C(=O)C3=O` < 4.00
